# TEST_DETAILS: Pharmacokinetics of ERL and GEF in Wistar rats after four weeks consumption of water or flavoured water (plasma, UPLC-MS/MS, non-compartmental analysis)
# Format: in vivo
# TEST_SETTINGS: male, Wistar, rat, plasma, oral, 20 mg/kg, PKSolver sheet; dose 20 mg/kg; +Lime; time 2 h; read-out: Conc
PROPERTY_MEASURED: concentration at 2 h (ng/mL)

(1) COc1cc2ncnc(Nc3ccc(F)c(Cl)c3)c2cc1OCCCN1CCOCC1
(2) C#Cc1cccc(Nc2ncnc3cc(OCCOC)c(OCCOC)cc23)c1
-- ask Looking at 1 and 2 , which one comes out lower in concentration at 2 h terms? I would appreciate it if you answered with the label of your choice.
-- reply 2
